measured_target: human estrogen receptor (Homo sapiens, UniProt P03372)
Construct: expressed in transfected cells; host or cells: Chinese Hamster Ovary (CHO) cells, stably transfected
Sequence (P03372 whole entry): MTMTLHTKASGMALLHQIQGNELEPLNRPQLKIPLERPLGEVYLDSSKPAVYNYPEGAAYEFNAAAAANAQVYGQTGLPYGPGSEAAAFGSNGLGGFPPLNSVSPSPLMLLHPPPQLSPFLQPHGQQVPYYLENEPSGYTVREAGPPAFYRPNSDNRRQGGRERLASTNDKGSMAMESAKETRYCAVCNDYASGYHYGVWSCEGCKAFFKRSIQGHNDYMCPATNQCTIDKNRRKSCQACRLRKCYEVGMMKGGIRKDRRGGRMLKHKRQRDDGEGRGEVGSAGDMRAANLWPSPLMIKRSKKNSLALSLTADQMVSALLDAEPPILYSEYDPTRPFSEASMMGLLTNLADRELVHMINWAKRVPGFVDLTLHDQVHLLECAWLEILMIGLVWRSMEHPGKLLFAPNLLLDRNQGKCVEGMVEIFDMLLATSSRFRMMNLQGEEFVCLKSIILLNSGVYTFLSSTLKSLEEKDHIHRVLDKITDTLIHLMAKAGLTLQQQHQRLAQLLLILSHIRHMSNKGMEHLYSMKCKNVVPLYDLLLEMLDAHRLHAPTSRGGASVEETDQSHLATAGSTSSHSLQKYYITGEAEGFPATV
test_summary: Estrogen Receptor Assay: 2×VIT ERE Transfection Assay (luciferase reporter in CHO cells)
Format: cell-based
protocol_conditions: 1 μM compound alone, 24 h, CHO cells stably transfected with human estrogen receptor, luciferase normalised to B-galactosidase, n=8
recorded_endpoint: Estrogenic activity at 1 μM (% of activity of 1 nM 17B-estradiol) (%)

[
  {
    "compound_smiles": "Oc1ccccc1-c1cc(-c2ccc(F)c(F)c2)cc(-c2ccco2)n1",
    "measured_target": "human estrogen receptor (Homo sapiens, UniProt P03372)",
    "unit_info": "%",
    "measured_value": 10
  }
]

a = Oc1ccccc1-c1cc(-c2ccc(F)c(F)c2)cc(-c2ccc(Cl)cc2)n1
b = Oc1cccc(-c2cc(C3CCCCC3)cc(-c3ccco3)n2)c1
c = Oc1ccc(F)cc1-c1cc(-c2ccc(-c3ccccc3)cc2)cc(-c2ccncc2)n1
d = Oc1ccccc1-c1cc(-c2ccc3c(c2)OCO3)cc(-c2ccc3ccccc3c2)n1
Task: Arrange the 4 molecules from largest to smallest Estrogenic activity at 1 μM (% of activity of 1 nM 17B-estradiol). Write out the labels following the order that was asked for.
Result: b, d, a, c

###

recorded_endpoint: melting point

# annotated cases, reported melting point shown
[
  {
    "molecule": "Oc1ccccc1-c1cc(-c2ccc(F)c(F)c2)cc(-c2ccc3ccccc3c2)n1 [Example 2]",
    "melting point": "165 to 167 °C"
  },
  {
    "molecule": "Oc1ccccc1-c1cc(-c2ccc3c(c2)OCO3)cc(-c2ccc3ccccc3c2)n1 [Example 4]",
    "melting point": "195 to 196 °C"
  },
  {
    "molecule": "Oc1ccccc1-c1cc(-c2ccc(F)c(F)c2)cc(-c2ccco2)n1 [Example 3]",
    "melting point": "147 to 148 °C"
  }
]

Notebook: Oc1ccc(F)cc1-c1cc(-c2ccc(-c3ccccc3)cc2)cc(-c2ccc3ccccc3c2)n1 [Example 6] , melting point read as 187 to 188 °C

Notebook: Oc1ccccc1-c1cc(-c2ccc3c(c2)OCO3)cc(-c2ccsc2)n1 [Example 5] , melting point read as 120 to 121 °C

Notebook: Oc1cccc(-c2cc(-c3ccc(-c4ccccc4)cc3)cc(-c3ccc4ccccc4c3)n2)c1 [Example 9] , melting point read as 174 to 175 °C

Notebook: Oc1ccccc1-c1cc(-c2ccc(F)c(F)c2)cc(-c2ccc(Cl)cc2)n1 [Example 1] , melting point read as 146 to 148 °C
